# procedure.details: Acid dissociation constants (pk) by pH-potentiometric titration, Schwarzenbach method
# Assay type: physicochemical
# measurement.parameters: aqueous solution; C = 0.02M; ionic strength 0.5 (KNO3); 22° C.; titration with 0.05M HCl aqueous solution (footnote 1)
The entries below come with measured pk1 values attached.
parameter: pk1

>>> df
                        structure_as_smiles  parameter    result
0     O=C(CC(=O)NCCc1cnc[nH]1)NCCc1cnc[nH]1        pk1  7.11^(1)
1    O=C(CCC(=O)NCCc1cnc[nH]1)NCCc1cnc[nH]1        pk1      6.88
2   O=C(CCCC(=O)NCCc1cnc[nH]1)NCCc1cnc[nH]1        pk1  7.16^(1)
3  O=C(CCCCC(=O)NCCc1cnc[nH]1)NCCc1cnc[nH]1        pk1  7.13^(1)

###

# procedure.details: Stability constants of complexes with zinc ions by pH-metric titration, Bjerrum method
# Assay type: physicochemical
# measurement.parameters: Table 5; aqueous solution, CL = 0.02M; M^z+/L = 1:6; ion strength 0.5 (KNO3), 22° C.
parameter: The third stability constant, lgK3 (zinc ions)

>>> print(df.to_string())
                        structure_as_smiles  result
0         O=C(CCCC(=O)NCCc1nccs1)NCCc1nccs1    5.05
1   O=C(CCCC(=O)NCCc1cnc[nH]1)NCCc1cnc[nH]1    2.87
2    O=C(CCC(=O)NCCc1cnc[nH]1)NCCc1cnc[nH]1    3.80
3  O=C(NCCc1c[nH]cn1)c1cccc(C(=O)NCCc2c[nH]cn2)c1    4.04
4  O=C(CCCCC(=O)NCCc1cnc[nH]1)NCCc1cnc[nH]1    3.38
5      O=C(NCCc1cnc[nH]1)C(=O)NCCc1cnc[nH]1    3.75
6   O=C(CCCC(=O)NCCc1ncc[nH]1)NCCc1ncc[nH]1    4.48
7     O=C(CC(=O)NCCc1cnc[nH]1)NCCc1cnc[nH]1    2.60

###

# procedure.details: Stability constants of complexes with zinc ions by pH-metric titration, Bjerrum method
# Format: physicochemical
# measurement.parameters: Table 4; aqueous solution, CL = 0.02M; M^z+/L = 1:6; ion strength 0.5 (KNO3), 22° C.
# The first stability constant of complexes with 1:1 compositions, lgK1, Zn (II) values compiled below
parameter: The first stability constant of complexes with 1:1 compositions, lgK1, Zn (II)

In [3]: df
Out[3]:
                        structure_as_smiles  numeric_result
0     O=C(CC(=O)NCCc1cnc[nH]1)NCCc1cnc[nH]1            4.84
1   O=C(CCCC(=O)NCCc1cnc[nH]1)NCCc1cnc[nH]1            5.05
2    O=C(CCC(=O)NCCc1cnc[nH]1)NCCc1cnc[nH]1            5.40
3  O=C(CCCCC(=O)NCCc1cnc[nH]1)NCCc1cnc[nH]1            5.46

###

# procedure.details: First stability constant of complexes with copper ions by pH-metric titration, Bjerrum method
# Assay type: physicochemical
# measurement.parameters: aqueous solution, CL = 0.02M; M^z+/L = 1:6; ion strength 0.5 (KNO3), 22° C.
Recorded The first stability constant of complexes with 1:1 compositions, lgK1, Cu (II) values for a group of compounds are listed next.
parameter: The first stability constant of complexes with 1:1 compositions, lgK1, Cu (II)

In [3]: df
Out[3]:
                        structure_as_smiles  numeric_result
0    O=C(CCC(=O)NCCc1cnc[nH]1)NCCc1cnc[nH]1            5.32
1   O=C(CCCC(=O)NCCc1cnc[nH]1)NCCc1cnc[nH]1            4.39
2  O=C(CCCCC(=O)NCCc1cnc[nH]1)NCCc1cnc[nH]1            4.62
3     O=C(CC(=O)NCCc1cnc[nH]1)NCCc1cnc[nH]1            4.17

###

# procedure.details: First stability constant of complexes with Fe (III) by pH-metric titration, Bjerrum method
# Type: physicochemical
# measurement.parameters: aqueous solution, CL = 0.02M; M^z+/L = 1:6; ion strength 0.5 (KNO3), 22° C.
A collection of molecules and their measured The first stability constant of complexes with 1:1 compositions, lgK1, Fe (III)
parameter: The first stability constant of complexes with 1:1 compositions, lgK1, Fe (III)

In [3]: df
Out[3]:
                        structure_as_smiles  result
0     O=C(CC(=O)NCCc1cnc[nH]1)NCCc1cnc[nH]1    5.29
1   O=C(CCCC(=O)NCCc1cnc[nH]1)NCCc1cnc[nH]1    6.60
2  O=C(CCCCC(=O)NCCc1cnc[nH]1)NCCc1cnc[nH]1    6.10
3    O=C(CCC(=O)NCCc1cnc[nH]1)NCCc1cnc[nH]1    6.59

###

# procedure.details: First stability constant of complexes with magnesium ions by pH-metric titration, Bjerrum method
# Format: physicochemical
# measurement.parameters: aqueous solution, CL = 0.02M; M^z+/L = 1:6; ion strength 0.5 (KNO3), 22° C.
Here, each record is paired with measured The first stability constant of complexes with 1:1 compositions, lgK1, Mg (II) data.
parameter: The first stability constant of complexes with 1:1 compositions, lgK1, Mg (II)

>>> print(df.to_string())
                        structure_as_smiles  numeric_result
0     O=C(CC(=O)NCCc1cnc[nH]1)NCCc1cnc[nH]1            2.59
1    O=C(CCC(=O)NCCc1cnc[nH]1)NCCc1cnc[nH]1            4.36
2  O=C(CCCCC(=O)NCCc1cnc[nH]1)NCCc1cnc[nH]1            3.72
3   O=C(CCCC(=O)NCCc1cnc[nH]1)NCCc1cnc[nH]1            2.82

###

# procedure.details: Stability constants of complexes with zinc ions by pH-metric titration, Bjerrum method
# Assay type: physicochemical
# measurement.parameters: Table 5; aqueous solution, CL = 0.02M; M^z+/L = 1:6; ion strength 0.5 (KNO3), 22° C.
parameter: The second stability constant, lgK2 (zinc ions)

                                   compound  numeric_result
0  O=C(CCCC(=O)NCCc1nccs1)NCCc1nccs1 [Compound 8]            5.80
1  O=C(NCCc1c[nH]cn1)c1cccc(C(=O)NCCc2c[nH]cn2)c1 [Compound 6, Bis-1,3-(N^β-histaminyl)isophthalic acid]            5.15
2  O=C(CCC(=O)NCCc1cnc[nH]1)NCCc1cnc[nH]1 [Compound 3]            5.05
3  O=C(NCCc1cnc[nH]1)C(=O)NCCc1cnc[nH]1 [Compound 1]            4.21
4  O=C(CCCC(=O)NCCc1cnc[nH]1)NCCc1cnc[nH]1 [Compound 11]            4.70
5  O=C(CCCCC(=O)NCCc1cnc[nH]1)NCCc1cnc[nH]1 [Compound 12]            5.03
6  O=C(CCCC(=O)NCCc1ncc[nH]1)NCCc1ncc[nH]1 [Compound 10]            5.24
7  O=C(CC(=O)NCCc1cnc[nH]1)NCCc1cnc[nH]1 [Compound 2]            4.50

###

# procedure.details: First stability constant of complexes with Fe (II) by pH-metric titration, Bjerrum method
# Format: physicochemical
# measurement.parameters: aqueous solution, CL = 0.02M; M^z+/L = 1:6; ion strength 0.5 (KNO3), 22° C.
parameter: The first stability constant of complexes with 1:1 compositions, lgK1, Fe (II)

>>> print(df.to_string())
                        structure_as_smiles  numeric_result
0     O=C(CC(=O)NCCc1cnc[nH]1)NCCc1cnc[nH]1            5.08
1   O=C(CCCC(=O)NCCc1cnc[nH]1)NCCc1cnc[nH]1            6.27
2    O=C(CCC(=O)NCCc1cnc[nH]1)NCCc1cnc[nH]1            5.95
3  O=C(CCCCC(=O)NCCc1cnc[nH]1)NCCc1cnc[nH]1            6.40
